Molecular target: Tyrosine-protein kinase Yes (Homo sapiens) (UniProt P07947)
Sequence (P07947 whole entry, looked up): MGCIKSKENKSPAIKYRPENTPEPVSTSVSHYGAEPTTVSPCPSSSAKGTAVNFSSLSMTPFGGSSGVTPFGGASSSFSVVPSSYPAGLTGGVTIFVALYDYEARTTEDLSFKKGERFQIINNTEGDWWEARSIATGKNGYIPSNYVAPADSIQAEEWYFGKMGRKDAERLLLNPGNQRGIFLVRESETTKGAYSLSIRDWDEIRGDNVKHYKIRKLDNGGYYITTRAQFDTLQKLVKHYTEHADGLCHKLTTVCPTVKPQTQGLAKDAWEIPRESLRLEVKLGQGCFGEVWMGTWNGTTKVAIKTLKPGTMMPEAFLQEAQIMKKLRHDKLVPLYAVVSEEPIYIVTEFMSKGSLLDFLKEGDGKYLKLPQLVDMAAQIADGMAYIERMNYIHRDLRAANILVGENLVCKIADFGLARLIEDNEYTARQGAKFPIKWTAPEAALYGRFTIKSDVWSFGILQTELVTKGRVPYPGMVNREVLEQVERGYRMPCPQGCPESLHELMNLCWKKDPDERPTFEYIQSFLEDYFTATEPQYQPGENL
Experiment: qHTS for small molecule inhibitors of Yes1 kinase: Primary Screen (AID 686947); note: potency is the fitted concentration of half-maximal effect; nearly all actives have a fitted effect of over 60% in size
Settings: Yes1 kinase biochemical qHTS inhibition; series mostly up to 76.9 µM
Results filed as inconclusive are left out. Active and inactive are the calls of the source. Calls come from the whole dose curve; as a rule, active = well fitted inhibition curve with a large enough effect; inconclusive = small, poorly fitted or top-dose-only effect; inactive = no such curve, though single readings can be large or run the other way.
The following compounds are listed with their measured Potency values.

Below: 4 compounds and their reported Potency.
compound	measured-endpoint	result
CC(C)c1ccc(-c2cc(-c3cn[nH]c3-c3ccccn3)ccn2)cc1	Potency	23.2 µM (active)
O=S1CCN(Cc2ccc(-c3ccc4ncnc(Nc5ccc(OCc6ccccc6)c(Cl)c5)c4c3)o2)CC1	Potency	0.368 µM (active)
CCn1c(-c2nonc2N)nc2c(C#CC(C)(C)O)nc(OC(CN)c3ccccc3)cc21 (stereo not given)	Potency	0.654 µM (active)
COc1ccc(Nc2ncc(-c3ccccc3)o2)cc1OC	Potency	1.16 µM (active)

With those in mind, consider the next compound.
Ask: Find the measured Potency: item CCn1cc(-c2ccnc3[nH]ccc23)c(-c2cccc(NC(=O)Nc3ccc(OCc4ccccc4)cc3)c2)n1 , target or system Tyrosine-protein kinase Yes (Homo sapiens) (UniProt P07947).
Result: 9.23 µM (active)

----------
Target: Cytochrome P450 2C9 (Homo sapiens)
Assay: qHTS Assay for Inhibitors and Substrates of Cytochrome P450 2C9 (AID 883); note: nearly all actives have a fitted effect of over 60% in size
Details: recombinant CYP2C9, luciferin-H luminescence, 60 min; series mostly up to 11.4 µM
Results filed as inconclusive are left out. Active and inactive are the calls of the source. Calls follow the shape of the dose curve; as a rule, active = well fitted inhibition curve with a large enough effect; inconclusive = small, poorly fitted or top-dose-only effect; inactive = no such curve, though single readings can be large or run the other way.
Give your call using only these classes: YES = active, NO = inactive

Reference set (4 entries):
compound	group-label
CCOC(=O)N/N=C1/C[C@@H](O)[C@@H](O)[C@@H]2[C@@H]3C(=O)N(c4cccc(Oc5ccccc5)c4)C(=O)[C@H]3CC[C@@H]12	NO
COc1cc(O)c(C(=O)/C=C/c2ccccc2)c(O)c1	YES
CC(C)CN1CCc2nc(-c3ccccc3)c3c(c2C1)COC(C)C3 (stereo unspecified)	NO
O=C1CCCC=C1[C@H](CCc1ccccc1)OC(=O)c1ccc(Br)cc1	YES

Ask: Outcome logged for COC(=O)NC(CC(C)=O)c1ccc2c(c1)OCO2 (stereo unspecified) in this assay:
Result: NO

Ask: Outcome logged for COc1ccc(C#CC2C=CC(OC(C)=O)C(COC(C)=O)O2)cc1 (stereo unspecified) in this assay:
Result: NO

Ask: Outcome logged for CCCCCCC1Cc2cc(OC)c(OC)cc2C(C(C(=O)OCC)C(=O)OCC)O1 (stereo unspecified) in this assay:
Result: NO

Ask: Outcome logged for COC(=O)NC(c1ccccc1)C(C#N)C(=O)OC (stereo unspecified) in this assay:
Result: NO

Ask: Outcome logged for C=CCOC(=O)C(C(C)=O)C(NC(=O)OC)c1cccc(C)c1 (stereo unspecified) in this assay:
Result: NO

Ask: Outcome logged for CCC(=O)[C@]12O[C@@]3(C4C(=O)OCCC41)N(Cc1ccccc1)C(C)=C(C(=O)OC)C(c1ccccc1)N3C2=O (stereo partly specified) in this assay:
Result: NO

----------
Tested on: JCK
Assay: qHTS profiling for inhibitors of Plasmodium falciparum proliferation (AID 504749); note: nearly all actives have a fitted effect of over 60% in size
Conditions: P. falciparum in erythrocytes, SYBR Green DNA, 72 h; series mostly up to 28.7 µM
Records with an inconclusive call do not appear. Activity calls are given as the source filed them. Calls come from the whole dose curve; as a rule, active = well fitted inhibition curve with a large enough effect; inconclusive = small, poorly fitted or top-dose-only effect; inactive = flat fitted curve, though single readings scatter. Square brackets hold non-standard residues; d marks the D form. Peptide text beside a SMILES is read from it. Orn = NCCC[CH](N)C(=O)O
Give your call using only these classes: label 1 for active, label 0 for inactive

compound	group-label
COc1ccc(-c2nc3ccc(C4=C(C)CC(=O)NN4)cc3[nH]2)cc1	label 0

Ask: Outcome logged for NC(=O)CCC1NC(=O)C(Cc2ccccc2)NC(=O)C(Cc2ccc(O)cc2)NC(=O)CCSSCC(C(=O)N2CCCC2C(=O)NC(CCCN=C(N)N)C(=O)NCC(N)=O)NC(=O)C(CC(N)=O)NC1=O (stereo not drawn) in this assay:
Result: label 0

Ask: Outcome logged for CC(C)CC1NC(=O)C(CCCN)NC(=O)C(C(C)C)NC(=O)C2CCCN2C(=O)C(Cc2ccccc2)NC(=O)C(CC(C)C)NC(=O)C(CCCN)NC(=O)C(C(C)C)NC(=O)C2CCCN2C(=O)C(Cc2ccccc2)NC1=O (stereo not drawn) (cyclo(FPV[Orn]LFPV[Orn]L); configuration not given here) in this assay:
Result: label 1
